tested on: K562 CRISPRi cells; assay: Constant region variant library pooled growth screen, K562; type: cell-based, human; conditions: sgRNA constant region variants; activity relative to the original, un-modified constant region cr995
EXPERIMENTAL READOUT: Mean relative activity
Number only, please.

Worked set:
{"MOLECULE": "cr164 (nucleic acid, listed as DNA, chemistry not fully specified) guide: GTTTAAGAGCTAAGCTGGAAACAGCATAGCAAGTTTAAATAAGGCTAGTCCGTTATCAACTTGAAAAAGTGGCCCCGAGTCGGTGCT", "Mean relative activity": 0.7776}
{"MOLECULE": "cr678 (nucleic acid, listed as DNA, chemistry not fully specified) guide: GTTTAAGAGCTAAGCTGGAAACAGCATAGCAAGTTTAAATAAGGCTAGTCCGTTATCAACTTGAAAAAGTGGCACCGAGTCGGTACT", "Mean relative activity": 0.8081}

Let us examine a further case.
Prompt line: Please look at this molecule and report its Mean relative activity: cr737 (nucleic acid, listed as DNA, chemistry not fully specified) guide: GTTTAAGAGCTAAGCTGGAAACAGCATAGCAAGTTTAAATAAGGCTAGTCCGTTATCAACTTGAAAAAGTGGCAGGCTGTGGCTGCT
Response line: 0.02539
